The reported numbers originate from ChEMBL document CHEMBL2218924.

Target: Cyclin-dependent kinase 2/cyclin A (Homo sapiens) (UniProt P24941+P20248+P78396)
Details: at 10 µM
Please provide measured residual activity for the entries that follow.
Answer format: numeric, % implied, no suffix.

// fetch residual activity for C[S+]([O-])c1ccc(-c2nc(-c3ccc(F)cc3)c(-c3ccncc3)[nH]2)cc1 (stereo not drawn) ; system: Cyclin-dependent kinase 2/cyclin A (Homo sapiens) (UniProt P24941+P20248+P78396)
104

// fetch residual activity for COc1cc(OC)c(/C=C2\C(=O)Nc3ccccc32)c(OC)c1 ; system: Cyclin-dependent kinase 2/cyclin A (Homo sapiens) (UniProt P24941+P20248+P78396)
76

// fetch residual activity for O=[N+]([O-])/C=C/c1ccc2c(c1)OCO2 ; system: Cyclin-dependent kinase 2/cyclin A (Homo sapiens) (UniProt P24941+P20248+P78396)
93

// fetch residual activity for O=C1Nc2ccc3ncsc3c2/C1=C/c1c[nH]cn1 ; system: Cyclin-dependent kinase 2/cyclin A (Homo sapiens) (UniProt P24941+P20248+P78396)
0

// fetch residual activity for O=C1NC(=O)c2c1c1c3ccccc3n3c1c1c2c2ccccc2n1C1CCC3O1 ; system: Cyclin-dependent kinase 2/cyclin A (Homo sapiens) (UniProt P24941+P20248+P78396)
60

// fetch residual activity for c1cc(-c2cnn3cc(-c4ccc(OCCN5CCCCC5)cc4)cnc23)ccn1 ; system: Cyclin-dependent kinase 2/cyclin A (Homo sapiens) (UniProt P24941+P20248+P78396)
64

// fetch residual activity for COC(=O)[C@@]1(O)C[C@H]2O[C@]1(C)n1c3ccccc3c3c4c(c5c6ccccc6n2c5c31)C(=O)NC4 ; system: Cyclin-dependent kinase 2/cyclin A (Homo sapiens) (UniProt P24941+P20248+P78396)
0

// fetch residual activity for CCn1cnc2c(Nc3cccc(Cl)c3)nc(N[C@@H]3CCCC[C@@H]3N)nc21 ; system: Cyclin-dependent kinase 2/cyclin A (Homo sapiens) (UniProt P24941+P20248+P78396)
0
